# testedTarget: HRgpA-6H (Porphyromonas gingivalis) (UniProt P28784)
# testDescription: ELISA, FASEBA Fab on coated HRgpA-6H
Parameter: Ratio OD(Variant)/OD(WT). Scope: all listed entries.
readout: Ratio OD(Variant)/OD(WT)

binder	readout	reportedResult
KB001 mouse Fab VL H90W (Fab, V domains shown) VH: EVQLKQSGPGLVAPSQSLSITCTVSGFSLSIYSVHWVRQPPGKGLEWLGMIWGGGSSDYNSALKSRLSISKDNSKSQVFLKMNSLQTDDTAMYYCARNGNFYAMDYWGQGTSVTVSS VL: QIVLTQSPAIMSASLGERVTMTCTASSSVSSSFLHWYQQKPGSSPQLWIYSTSNLASGVPARFSGSGSGTSYSLTISSMEAEDAATYYCWQYHHSPYIYTFGGGTKLEIK	Ratio OD(Variant)/OD(WT)	1.06
KB001 mouse Fab VL T52L (Fab, V domains shown) VH: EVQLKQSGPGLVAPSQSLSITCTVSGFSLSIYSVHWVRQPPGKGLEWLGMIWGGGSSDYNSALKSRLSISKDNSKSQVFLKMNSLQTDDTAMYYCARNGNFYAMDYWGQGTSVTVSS VL: QIVLTQSPAIMSASLGERVTMTCTASSSVSSSFLHWYQQKPGSSPQLWIYSLSNLASGVPARFSGSGSGTSYSLTISSMEAEDAATYYCHQYHHSPYIYTFGGGTKLEIK	Ratio OD(Variant)/OD(WT)	0.977
KB001 mouse Fab VL N54L (Fab, V domains shown) VH: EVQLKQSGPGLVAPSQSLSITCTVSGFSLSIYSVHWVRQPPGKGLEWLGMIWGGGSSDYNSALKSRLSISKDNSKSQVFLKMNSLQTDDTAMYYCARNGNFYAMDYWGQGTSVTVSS VL: QIVLTQSPAIMSASLGERVTMTCTASSSVSSSFLHWYQQKPGSSPQLWIYSTSLLASGVPARFSGSGSGTSYSLTISSMEAEDAATYYCHQYHHSPYIYTFGGGTKLEIK	Ratio OD(Variant)/OD(WT)	0.988
